Where these numbers come from: patent US20240425587A1

Molecular target: T1, human PILRA, c-term His-Avi tag (human, UniProt Q9UKJ1 20-197, limits assumed)
T1 construct: not shown: C-terminal His-Avi tag
T1 sequence (Q9UKJ1 20-197 limits assumed): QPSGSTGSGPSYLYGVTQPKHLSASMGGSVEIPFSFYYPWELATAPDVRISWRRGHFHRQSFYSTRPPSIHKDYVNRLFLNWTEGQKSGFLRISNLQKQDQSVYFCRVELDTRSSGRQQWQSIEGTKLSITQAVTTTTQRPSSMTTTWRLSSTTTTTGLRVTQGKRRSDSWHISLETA
Assay: SPR (Biacore), antibody captured, PILRA as analyte
Procedure: Experiments were performed to determine the kinetics of anti-PILRA antibody binding to human […]. The assay is depicted in FIG. 6. A rabbit anti-PILRA was used as a positive control, and H1 LALAPS was used as a negative control. Human PILRA (human PILRA, c-term His-Avi tag, 0.68 mg/mi) was used as the antigen. The running buffer was HBSTE/0.5% BSA, pH 7.4, and the regeneration solution was 10 mM glycine-HCl (pH 2.1). […]
measured_quantity: koff (s⁻¹)
Answers are plain numbers, in s⁻¹.

Check out these entries, answers already filled in.
A4 (antibody, V domains shown, phage campaign) VH: QVQLVQSGAEVKKPGSSVKVSCKASGYTFTGYAVNWVRQAPGQGLEWMGGIIPIFGTANYAQKFQGRVTITADESTSTAYMELSSLRSEDTAVYYCARNLGYSSGWSGYYYGMDVWGQGTMVTVSS VL: EIVMTQSPATLSVSPGERATLSCRASQSVSSNYLAWYQQKPGQAPRLLIYGASTRATGIPARFSGSGSGTEFTLTISSLQSEDFAVYYCQQYGSSSFTFGPGTKLEIK: 0.005
E12 (antibody, V domains shown, B-cell cloning campaign (mice)) VH: QVQLQQSGAELAKPGASVKLSCKASGYTFTSYWIHWVKQRPGQGLEWIGYINPSSGDTEYNQKFKDKATLTADKSSNTAYMQLSSLTYEDSAVYYCARSAPDDGYYDYAMDYWGQGTSVTVSS VL: DIVMTQSRKFMSTSVGDRVSVTCKASQNVGSNVAWYQQKPGQSPKGLTYSASYRYSGVPDRFTGSGSGTDFTLTISNVQSEDLAEYFCQQYNSYPYTFGGGTKLEIK: 0.0012

Lab note: next binder to report on.
Input line: Fill blank: measured koff of the binder B4 (antibody, V domains shown, B-cell cloning campaign (mice)) VH: EVKLVESGGGLVKPGGSLKLSCTASGFTFSNYAMSWVRQTPEKRLEWVASISGGGSTYYPDSVKGRFTIAIDYARNILYLQMSSLRSEDTAIYYCTRGVSYGDYAMDYWGQGTSVTVSS VL: ETTVTQSPASLSMAIGEKVTIRCVTSTDIDDDMNWYQQKPGGPPKLLISEGNTLRPGVPSRFSSSGYGSDFVFTIEDMLSEDVADYYCLQSDNLPLTFGAGTKVELK is ____.
Output line: 0.00054
